assay.comment: Multiple Ascending Dose (MAD) study, pharmacokinetics in healthy volunteers
Type: in vivo, human
run.parameters: human, in vivo, oral, 8 mg, 8 mg BID, Day 1, n = 4; arithmetic mean
property.label: half-life (h)
Entry rule: numbers only, all in h.

GET /value?item= [2H]C1([2H])C([C@@H](CC#N)n2cc(-c3ncnc4[nH]ccc34)cn2)C([2H])([2H])C([2H])([2H])C1([2H])[2H] &field=half-life returns 3.77

----------
assay.comment: Single Ascending Dose (SAD) study, pharmacokinetics in healthy volunteers
Format: in vivo, human
run.parameters: human, in vivo, oral; single dose 8 mg as phosphate salt, fasted, n = 6; arithmetic mean; read-out: Vz/F
property.label: Vd/F (L)
Entry rule: numbers only, all in L.

GET /value?item= [2H]C1([2H])C([C@@H](CC#N)n2cc(-c3ncnc4[nH]ccc34)cn2)C([2H])([2H])C([2H])([2H])C1([2H])[2H] [Compound (I)] &field=Vd/F returns 64.1

----------
assay.comment: Multiple Ascending Dose (MAD) study, pharmacokinetics in healthy volunteers
Type: in vivo, human
run.parameters: human, in vivo, oral, 16 mg, 16 mg BID, Day 7, n = 8; arithmetic mean
property.label: half-life (h)
Entry rule: numbers only, all in h.

GET /value?item= [2H]C1([2H])C([C@@H](CC#N)n2cc(-c3ncnc4[nH]ccc34)cn2)C([2H])([2H])C([2H])([2H])C1([2H])[2H] [Compound (I)] &field=half-life returns 3.53

----------
assay.comment: Multiple Ascending Dose (MAD) study, pharmacokinetics in healthy volunteers
Format: in vivo, human
run.parameters: human, in vivo, oral, 24 mg, 24 mg QD, Day 1, n = 8; arithmetic mean; read-out: AUCtau/AUC0-24hr
property.label: AUC(0-t)
# number then unit; no other words

GET /value?item= [2H]C1([2H])C([C@@H](CC#N)n2cc(-c3ncnc4[nH]ccc34)cn2)C([2H])([2H])C([2H])([2H])C1([2H])[2H] [Compound (I)] &field=AUC(0-t) returns 1670 ng·h/mL

----------
assay.comment: Multiple Ascending Dose (MAD) study, pharmacokinetics in healthy volunteers
Format: in vivo, human
run.parameters: human, in vivo, oral, 8 mg, 8 mg QD, Day 1, n = 7; arithmetic mean
property.label: half-life (min)
Entry rule: numbers only, all in min.

GET /value?item= [2H]C1([2H])C([C@@H](CC#N)n2cc(-c3ncnc4[nH]ccc34)cn2)C([2H])([2H])C([2H])([2H])C1([2H])[2H] &field=half-life returns 194

----------
assay.comment: Single Ascending Dose (SAD) study, pharmacokinetics in healthy volunteers
Assay type: in vivo, human
run.parameters: human, in vivo, oral; single dose 8 mg as phosphate salt, fasted, n = 6; arithmetic mean; read-out: AUC0-24hr
property.label: AUC(0-t) (ng·h/mL)
Entry rule: numbers only, all in ng·h/mL.

GET /value?item= [2H]C1([2H])C([C@@H](CC#N)n2cc(-c3ncnc4[nH]ccc34)cn2)C([2H])([2H])C([2H])([2H])C1([2H])[2H] &field=AUC(0-t) returns 584

----------
assay.comment: Multiple Ascending Dose (MAD) study, pharmacokinetics in healthy volunteers
Assay type: in vivo, human
run.parameters: human, in vivo, oral, 24 mg, 24 mg QD, Day 7, n = 8; arithmetic mean; read-out: C24hr
property.label: concentration at 24 h (ng/mL)
Entry rule: numbers only, all in ng/mL.

GET /value?item= [2H]C1([2H])C([C@@H](CC#N)n2cc(-c3ncnc4[nH]ccc34)cn2)C([2H])([2H])C([2H])([2H])C1([2H])[2H] &field=concentration at 24 h returns 3.39
